Values compiled from PubChem BioAssay (EPA / NIEHS).

read-out: Interleukin 6 Receptor (IL6R), IL6R (gene 3570); test: LTEA_HepaRG_IL6R: Life Technologies and Expression Analysis (LTEA) Assay for Interleukin 6 Receptor (IL6R) using HepaRG (AID 2283510); details: mRNA level, 48 h; actives raise or lower the signal
The source made the active and inactive calls. The calls were made as follows: active = hit-call score of the fitted dose curve at least 0.9, where 1 is the maximum; inactive = score below 0.9.
propertyLabel: outcome

{"compound": "C=C(C)[C@H]1Cc2c(ccc3c2O[C@@H]2COc4cc(OC)c(OC)cc4[C@@H]2C3=O)O1", "result": "inactive"}
{"compound": "CCc1cccc(C)c1N(C(=O)CCl)C(C)COC (stereo unspecified)", "result": "inactive"}
{"compound": "CC(Oc1cccc(Cl)c1)C(=O)O (stereo unspecified)", "result": "inactive"}
{"compound": "CNC(=O)Oc1cccc2c1OC(C)(C)O2", "result": "inactive"}
{"compound": "CCC(=NOC/C=C/Cl)C1=C(O)CC(C2CCOCC2)CC1=O (stereo unspecified)", "result": "inactive"}
{"compound": "COP(=O)(OC)C(O)C(Cl)(Cl)Cl (stereo unspecified)", "result": "inactive"}

* * *

assay: APR_HepG2_MitoMass_1hr: Apredica 1-hour HepG2 Assay for Mitochondrial Mass (AID 2282674); settings: high-content imaging, actives raise or lower the signal
Active and inactive are the calls of the source. The calls were made as follows: active = hit-call score of the fitted dose curve at least 0.9, where 1 is the maximum; inactive = score below 0.9.
propertyLabel: outcome

{"compound": "N#CSCSC#N", "propertyLabel": "outcome", "result": "inactive"}
{"compound": "CC[C@H](C)[C@H]1O[C@]2(C=C[C@@H]1C)C[C@@H]1C[C@@H](C/C=C(\\C)[C@@H](O[C@H]3C[C@H](OC)[C@@H](O[C@H]4C[C@H](OC)[C@@H](NC)[C@H](C)O4)[C@H](C)O3)[C@@H](C)/C=C/C=C3\\CO[C@@H]4[C@H](O)C(C)=C[C@@H](C(=O)O1)[C@]34O)O2", "propertyLabel": "outcome", "result": "inactive"}
{"compound": "Nc1c(Cl)cc([N+](=O)[O-])cc1Cl", "propertyLabel": "outcome", "result": "inactive"}
{"compound": "COc1cccc(C(=O)NN(C(=O)c2cc(C)cc(C)c2)C(C)(C)C)c1C", "propertyLabel": "outcome", "result": "inactive"}
{"compound": "CCOP(=S)(OCC)Oc1ccc([N+](=O)[O-])cc1", "propertyLabel": "outcome", "result": "inactive"}
{"compound": "CC(COc1ccc(Oc2ccccc2)cc1)Oc1ccccn1 (centres undefined)", "propertyLabel": "outcome", "result": "inactive"}
{"compound": "O=c1ccc(=O)[nH][nH]1", "propertyLabel": "outcome", "result": "inactive"}
{"compound": "CCC(=NOC/C=C/Cl)C1=C(O)CC(C2CCOCC2)CC1=O (centres undefined)", "propertyLabel": "outcome", "result": "inactive"}
{"compound": "CSC1=N[C@@](C)(c2ccccc2)C(=O)N1Nc1ccccc1", "propertyLabel": "outcome", "result": "inactive"}

* * *

assay: CCTE_Shafer_MEA_acute_per_burst_spike_number_mean: CCTE's Neural Acute Assay for Average Number of Spikes Per Burst, Shafer Lab (AID 2284015);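 also: hits are decreases in mean spikes per burst versus baseline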
Active and inactive are the calls of the source. The calls were made as follows: active = hit-call score of the fitted dose curve at least 0.9, where 1 is the maximum; inactive = score below 0.9.
Labels: true (1) (active), false (0) (inactive)

{"compound": "C#CCC1=C(C)C(OC(=O)C2C(C=C(C)C)C2(C)C)CC1=O (stereo not drawn)", "labelValue": "false (0)"}
{"compound": "CCc1cnc(C2=NC(C)(C(C)C)C(=O)N2)c(C(=O)O)c1 (stereo not drawn)", "labelValue": "false (0)"}
{"compound": "CCOP(=O)(NC(C)C)Oc1ccc(SC)c(C)c1 (stereo not drawn)", "labelValue": "false (0)"}
{"compound": "O=[N+]([O-])c1cc(C(F)(F)F)c(Cl)c([N+](=O)[O-])c1Nc1ncc(C(F)(F)F)cc1Cl", "labelValue": "true (1)"}
{"compound": "COP(=O)(OC)C(O)C(Cl)(Cl)Cl (stereo not drawn)", "labelValue": "true (1)"}
{"compound": "CNC(=O)ON=C(SC)C(=O)N(C)C", "labelValue": "false (0)"}
{"compound": "CCOP(=S)(Oc1cnc(C(C)(C)C)nc1)OC(C)C (stereo not drawn)", "labelValue": "true (1)"}
{"compound": "CCOC(=O)CC(SP(=O)(OC)OC)C(=O)OCC (stereo not drawn)", "labelValue": "false (0)"}
{"compound": "FC(F)C(F)(F)OCC(Cn1cncn1)c1ccc(Cl)cc1Cl (stereo not drawn)", "labelValue": "false (0)"}
{"compound": "C[N+]1(C)CCCCC1", "labelValue": "false (0)"}
{"compound": "CN1COCN(Cc2cnc(Cl)s2)C1=N[N+](=O)[O-]", "labelValue": "false (0)"}
{"compound": "C[Si](Cn1cncn1)(c1ccc(F)cc1)c1ccc(F)cc1", "labelValue": "true (1)"}
{"compound": "COc1cc(OC)nc(Sc2cccc(Cl)c2C(=O)O)n1", "labelValue": "false (0)"}
{"compound": "CC1=NNC(=O)N(/N=C/c2cccnc2)C1", "labelValue": "false (0)"}
{"compound": "CCc1cccc(C)c1N(C(=O)CCl)C(C)COC (stereo not drawn)", "labelValue": "false (0)"}
{"compound": "Cc1ccn2nc(S(=O)(=O)Nc3c(F)cccc3F)nc2n1", "labelValue": "false (0)"}
{"compound": "CON=C(C(=O)OC)c1ccccc1CON=C(C)c1cccc(C(F)(F)F)c1", "labelValue": "true (1)"}
{"compound": "O=C(O)c1cc(Oc2ccc(C(F)(F)F)cc2Cl)ccc1[N+](=O)[O-]", "labelValue": "false (0)"}

* * *

read-out: CYP2C9 (gene 1559); experiment: LTEA_HepaRG_CYP2C9: Life Technologies and Expression Analysis (LTEA) Assay for CYP2C9 using HepaRG (AID 2283484); conditions: mRNA level, 48 h; actives raise or lower the signal
Calls of active or inactive are those of the source. The calls were made as follows: active = hit-call score of the fitted dose curve at least 0.9, where 1 is the maximum; inactive = score below 0.9.
Labels: y for active, n for inactive

{"molecule": "CSc1nc(NC(C)C)nc(NC(C)C)n1", "labelValue": "y"}
{"molecule": "COP(=O)(OC)OC(Br)C(Cl)(Cl)Br (stereo not drawn)", "labelValue": "n"}
{"molecule": "CC(COc1ccc(Oc2ccccc2)cc1)Oc1ccccn1 (stereo not drawn)", "labelValue": "n"}
{"molecule": "Nc1nc(N)nc(NC2CC2)n1", "labelValue": "n"}
{"molecule": "CN(C)NC(=O)CCC(=O)O", "labelValue": "n"}
{"molecule": "CCc1cnc(C2=NC(C)(C(C)C)C(=O)N2)c(C(=O)O)c1 (stereo not drawn)", "labelValue": "n"}
{"molecule": "C[Si](Cn1cncn1)(c1ccc(F)cc1)c1ccc(F)cc1", "labelValue": "y"}
{"molecule": "COc1cc(OC)nc(Sc2cccc(Cl)c2C(=O)O)n1", "labelValue": "n"}
{"molecule": "CCOP(=S)(Oc1cnc(C(C)(C)C)nc1)OC(C)C (stereo not drawn)", "labelValue": "n"}
{"molecule": "CNC(=O)Oc1cccc2c1OC(C)(C)O2", "labelValue": "n"}
{"molecule": "Cc1cc(C2CC2)nc(Nc2ccccc2)n1", "labelValue": "n"}
{"molecule": "CCOP(=O)(OCC)Oc1cc(C)nc(C(C)C)n1", "labelValue": "n"}
{"molecule": "CCC(CC)Nc1c([N+](=O)[O-])cc(C)c(C)c1[N+](=O)[O-]", "labelValue": "n"}

* * *

read-out: Hypoxia-inducible factor 1-alpha (Homo sapiens) (UniProt Q16665); experiment: LTEA_HepaRG_HIF1A: Life Technologies and Expression Analysis (LTEA) Assay for Hypoxia-inducible factor 1 (HIF1A) Trancription factor using HepaRG (AID 2283503); conditions: mRNA level, 48 h; actives raise or lower the signal;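 also: HIF1A transcript by TaqMan qRT-PCR normalized to ACTB GAPDH and POLR2A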
Sequence (Q16665 whole entry, looked up): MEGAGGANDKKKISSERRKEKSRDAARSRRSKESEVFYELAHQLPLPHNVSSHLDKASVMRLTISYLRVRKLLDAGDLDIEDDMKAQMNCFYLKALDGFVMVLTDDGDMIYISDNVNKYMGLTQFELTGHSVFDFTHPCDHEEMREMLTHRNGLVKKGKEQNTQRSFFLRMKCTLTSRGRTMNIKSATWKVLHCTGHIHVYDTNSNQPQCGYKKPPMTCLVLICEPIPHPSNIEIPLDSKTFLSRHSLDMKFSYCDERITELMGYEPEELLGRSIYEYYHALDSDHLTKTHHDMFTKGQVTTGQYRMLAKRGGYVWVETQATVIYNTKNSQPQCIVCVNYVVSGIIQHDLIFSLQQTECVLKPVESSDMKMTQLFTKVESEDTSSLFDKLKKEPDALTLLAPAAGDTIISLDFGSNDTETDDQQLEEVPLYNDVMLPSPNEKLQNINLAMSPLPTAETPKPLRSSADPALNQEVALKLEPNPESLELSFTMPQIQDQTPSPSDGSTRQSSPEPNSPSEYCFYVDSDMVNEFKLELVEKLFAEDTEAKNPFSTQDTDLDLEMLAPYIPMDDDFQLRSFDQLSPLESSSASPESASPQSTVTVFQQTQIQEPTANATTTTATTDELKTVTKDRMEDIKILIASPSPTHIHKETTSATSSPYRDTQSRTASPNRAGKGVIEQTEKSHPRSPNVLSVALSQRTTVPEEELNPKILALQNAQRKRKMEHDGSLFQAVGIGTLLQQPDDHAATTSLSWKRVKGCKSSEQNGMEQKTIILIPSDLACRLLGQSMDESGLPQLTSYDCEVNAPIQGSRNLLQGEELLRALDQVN
Activity calls are given as the source filed them. Rule for the calls: active = hit-call score of the fitted dose curve at least 0.9, where 1 is the maximum; inactive = score below 0.9.
Labels: 1 (active), 0 (inactive)

{"compound": "CCOP(=O)(SC(C)CC)N1CCSC1=O (stereo not drawn)", "labelValue": 0}
{"compound": "CC(C)=CC1C(C(=O)OCN2C(=O)C3=C(CCCC3)C2=O)C1(C)C (stereo not drawn)", "labelValue": 0}
{"compound": "CC(C)[C@H](C(=O)O[C@H](C#N)c1cccc(Oc2ccccc2)c1)c1ccc(Cl)cc1", "labelValue": 0}
{"compound": "CCOP(=S)(OCC)OC(Cl)C(Cl)(Cl)Cl (stereo not drawn)", "labelValue": 0}
{"compound": "O=[N+]([O-])c1cc(C(F)(F)F)c(Cl)c([N+](=O)[O-])c1Nc1ncc(C(F)(F)F)cc1Cl", "labelValue": 1}
{"compound": "CCC(=NOC/C=C/Cl)C1=C(O)CC(C2CCOCC2)CC1=O (stereo not drawn)", "labelValue": 0}
{"compound": "CCCCN(CC)c1c([N+](=O)[O-])cc(C(F)(F)F)cc1[N+](=O)[O-]", "labelValue": 0}
{"compound": "COP(=O)(OC)SCn1c(=O)oc2cc(Cl)cnc21", "labelValue": 0}
{"compound": "Cc1nn(-c2cc(NS(C)(=O)=O)c(Cl)cc2Cl)c(=O)n1C(F)F", "labelValue": 0}
{"compound": "C[N+]1(C)CCCCC1", "labelValue": 0}
{"compound": "CCc1cnc(C2=NC(C)(C(C)C)C(=O)N2)c(C(=O)O)c1 (stereo not drawn)", "labelValue": 0}
{"compound": "S=C1NCCN1", "labelValue": 0}
{"compound": "C#CC(C)(C)NC(=O)c1cc(Cl)cc(Cl)c1", "labelValue": 0}
{"compound": "CCc1cccc(CC)c1N(COC)C(=O)CCl", "labelValue": 0}
{"compound": "CCOP(=S)(Oc1cnc(C(C)(C)C)nc1)OC(C)C (stereo not drawn)", "labelValue": 0}
{"compound": "CC(COc1ccc(Oc2ccccc2)cc1)Oc1ccccn1 (stereo not drawn)", "labelValue": 0}
{"compound": "CCC(CC)Nc1c([N+](=O)[O-])cc(C)c(C)c1[N+](=O)[O-]", "labelValue": 0}
{"compound": "COc1cc(OC)nc(Sc2cccc(Cl)c2C(=O)O)n1", "labelValue": 0}
{"compound": "Cc1ccn2nc(S(=O)(=O)Nc3c(F)cccc3F)nc2n1", "labelValue": 0}
{"compound": "COc1cccc(C(=O)NN(C(=O)c2cc(C)cc(C)c2)C(C)(C)C)c1C", "labelValue": 0}
{"compound": "CCOC(=O)CC(SP(=O)(OC)OC)C(=O)OCC (stereo not drawn)", "labelValue": 0}
{"compound": "CNC(=O)ON=C(C)SC", "labelValue": 0}
{"compound": "Nc1c(Cl)cc([N+](=O)[O-])cc1Cl", "labelValue": 1}
{"compound": "CCCOc1nn(C(=O)NS(=O)(=O)c2ccccc2C(=O)OC)c(=O)n1C", "labelValue": 0}
{"compound": "CSc1nnc(C(C)(C)C)c(=O)n1N", "labelValue": 0}
{"compound": "CCOP(=S)(OCC)SCCSCC", "labelValue": 0}
{"compound": "CCCOCC(=Nc1ccc(Cl)cc1C(F)(F)F)n1ccnc1", "labelValue": 1}
{"compound": "CC[C@H](C)[C@H]1O[C@]2(C=C[C@@H]1C)C[C@@H]1C[C@@H](C/C=C(\\C)[C@@H](O[C@H]3C[C@H](OC)[C@@H](O[C@H]4C[C@H](OC)[C@@H](NC)[C@H](C)O4)[C@H](C)O3)[C@@H](C)/C=C/C=C3\\CO[C@@H]4[C@H](O)C(C)=C[C@@H](C(=O)O1)[C@]34O)O2", "labelValue": 1}
{"compound": "CCc1cccc(C)c1N(C(=O)CCl)C(C)COC (stereo not drawn)", "labelValue": 0}
{"compound": "CCOC(=O)COc1cc(-c2nn(C)c(OC(F)F)c2Cl)c(F)cc1Cl", "labelValue": 0}
{"compound": "CSc1nc(NC(C)C)nc(NC(C)C)n1", "labelValue": 0}
{"compound": "CCCCSP(=O)(SCCCC)SCCCC", "labelValue": 0}
{"compound": "CC(Oc1cccc(Cl)c1)C(=O)O (stereo not drawn)", "labelValue": 0}
{"compound": "CC1(C(=O)Nc2ccc(O)c(Cl)c2Cl)CCCCC1", "labelValue": 0}
{"compound": "CNc1cnn(-c2cccc(C(F)(F)F)c2)c(=O)c1Cl", "labelValue": 0}
{"compound": "C#CCC1=C(C)C(OC(=O)C2C(C=C(C)C)C2(C)C)CC1=O (stereo not drawn)", "labelValue": 0}
{"compound": "CN1COCN(Cc2cnc(Cl)s2)C1=N[N+](=O)[O-]", "labelValue": 0}
{"compound": "CNC(=O)Oc1cccc2c1OC(C)(C)O2", "labelValue": 0}
